The measured values listed here are drawn from the supplement of paper PMC10724198.

Test system: Saccharomyces cerevisiae
Assay: protein stability index of tFT-peptide fusion in deletion strain of DAS1 (PSI (0-1 scale)); higher = more stable (slower turnover)
Measured protein stability index values are reported for all entries that follow.
ASSAY READOUT: protein stability index

[[record]]
entry_sequence = "LVVYLFCVACIN"
test_value = 0.0277

[[record]]
entry_sequence = "FSMNWTFRYWVN"
test_value = 0.496

[[record]]
entry_sequence = "LKILNQKMNHQN"
test_value = 0.688

[[record]]
entry_sequence = "LKILRQKMNPQN"
test_value = 0.677

[[record]]
entry_sequence = "PDKRTHLIKLLN"
test_value = 0.655

[[record]]
entry_sequence = "AQWRVGLWRGAS"
test_value = 0.709

[[record]]
entry_sequence = "PDSRNHLIKLLN"
test_value = 0.6

[[record]]
entry_sequence = "VRGAVGGTRLVG"
test_value = 0.673

[[record]]
entry_sequence = "LVVYLSCVACIL"
test_value = 0.032

[[record]]
entry_sequence = "KKHKKGQKQKINY"
test_value = 0.663

[[record]]
entry_sequence = "GKILRQKMNHQN"
test_value = 0.677

[[record]]
entry_sequence = "KKHKKHQKQKIN"
test_value = 0.521

[[record]]
entry_sequence = "TDKRNHLIKLLN"
test_value = 0.577

[[record]]
entry_sequence = "LVVTLSCVACIN"
test_value = 0.0408

[[record]]
entry_sequence = "RLIQYLPVQFLN"
test_value = 0.637

[[record]]
entry_sequence = "LKMLRQKMNHQN"
test_value = 0.683

[[record]]
entry_sequence = "KKHKKGQKQKWN"
test_value = 0.587

[[record]]
entry_sequence = "RLIQPLHVQFLN"
test_value = 0.61

[[record]]
entry_sequence = "LKILRQKMNHQNV"
test_value = 0.662

[[record]]
entry_sequence = "ARWRVGLWRIAS"
test_value = 0.677

[[record]]
entry_sequence = "LVVYLSCWACIN"
test_value = 0.0504

[[record]]
entry_sequence = "PSLAASFWAVVG"
test_value = 0.686

[[record]]
entry_sequence = "PDKRNHLINLLN"
test_value = 0.605

[[record]]
entry_sequence = "LVVYLSCVNCIN"
test_value = 0.419

[[record]]
entry_sequence = "ARWRVGLWRGASE"
test_value = 0.666


====

Tested on: Saccharomyces cerevisiae
Test: protein stability index of tFT-peptide fusion (C-terminal peptide) (PSI (0-1 scale)); higher = more stable (slower turnover)
Conditions: genetic background: cdc53-1; temperature: 37 C
# reported protein stability index; entries follow
ASSAY READOUT: protein stability index

[[record]]
entry_sequence = "RLCKGQKYTKIN"
test_value = 0.718

[[record]]
entry_sequence = "LFFSFLFLATRC"
test_value = 0.209

[[record]]
entry_sequence = "WLVIWPRKLSTV"
test_value = 0.632

[[record]]
entry_sequence = "FFLLSVVLKYSV"
test_value = 0.0866

[[record]]
entry_sequence = "GGMVRSCLWCFV"
test_value = 0.755

[[record]]
entry_sequence = "LIRDLLYMAVLV"
test_value = 0.258

[[record]]
entry_sequence = "YPFIPLIVCGFF"
test_value = 0.41

[[record]]
entry_sequence = "WIVQCCLYVPVQ"
test_value = 0.314

[[record]]
entry_sequence = "LSAVISLRIQLS"
test_value = 0.603

[[record]]
entry_sequence = "LRFFLPFLLSLP"
test_value = 0.596

[[record]]
entry_sequence = "NDKGKKTKIKIV"
test_value = 0.72

[[record]]
entry_sequence = "SFVGCWFVLLVR"
test_value = 0.0395

[[record]]
entry_sequence = "VVGLVSIVQVIM"
test_value = 0.488

[[record]]
entry_sequence = "SVLLVFRFFWEL"
test_value = 0.461

[[record]]
entry_sequence = "YYFCMYFKVTLC"
test_value = 0.15

[[record]]
entry_sequence = "LSIGCRCLWGWF"
test_value = 0.755

[[record]]
entry_sequence = "FVVHPARYYLVL"
test_value = 0.682

[[record]]
entry_sequence = "LFFVCSGVVFSF"
test_value = 0.548

[[record]]
entry_sequence = "ILHRRCGLLLQI"
test_value = 0.506

[[record]]
entry_sequence = "TVRVVMLRLLFT"
test_value = 0.52

[[record]]
entry_sequence = "AYACSILRCKSS"
test_value = 0.727

[[record]]
entry_sequence = "RFFFASRYIECF"
test_value = 0.173

[[record]]
entry_sequence = "CLASCRHRTYLC"
test_value = 0.714

[[record]]
entry_sequence = "VVSGLNYCLVLS"
test_value = 0.48

[[record]]
entry_sequence = "CGILACSVCTFF"
test_value = 0.652

[[record]]
entry_sequence = "LNSSVLRLRFFV"
test_value = 0.739

[[record]]
entry_sequence = "VFFLVHFHLPMF"
test_value = 0.57

[[record]]
entry_sequence = "VLAFFPLFFFLS"
test_value = 0.505

[[record]]
entry_sequence = "FPFFLLAAPFLA"
test_value = 0.621

[[record]]
entry_sequence = "VIRFNSAPRFLV"
test_value = 0.721

[[record]]
entry_sequence = "FRVFYSFLLCLS"
test_value = 0.189

[[record]]
entry_sequence = "VFRLFFLLVWLV"
test_value = 0.0744

[[record]]
entry_sequence = "LLLFSFAALANF"
test_value = 0.545

[[record]]
entry_sequence = "LIVCVKAITIVS"
test_value = 0.0452

[[record]]
entry_sequence = "LSLSPRLPRLVA"
test_value = 0.659

[[record]]
entry_sequence = "ARALLGVGWYWV"
test_value = 0.785

[[record]]
entry_sequence = "AGALAVALPCIC"
test_value = 0.506

[[record]]
entry_sequence = "WSCFLLLLSLSL"
test_value = 0.445

[[record]]
entry_sequence = "PLPSRAPVQFLL"
test_value = 0.754

[[record]]
entry_sequence = "VFGFLVFYVCVR"
test_value = 0.146

[[record]]
entry_sequence = "YFWWLWMSFWVG"
test_value = 0.53

[[record]]
entry_sequence = "FGRAVWSRFCIV"
test_value = 0.735

[[record]]
entry_sequence = "DFCCGVILTCVC"
test_value = 0.106

[[record]]
entry_sequence = "SARSYLTERLLA"
test_value = 0.714

[[record]]
entry_sequence = "WCAMITVFCGSG"
test_value = 0.29

[[record]]
entry_sequence = "LSLCPVHRLLVL"
test_value = 0.632

[[record]]
entry_sequence = "FGKGRSLLLVFS"
test_value = 0.597

[[record]]
entry_sequence = "FVFFRFSLLFFF"
test_value = 0.344

[[record]]
entry_sequence = "LVRDEVLKVKLV"
test_value = 0.718

[[record]]
entry_sequence = "SWVVLVSFLSWR"
test_value = 0.35

[[record]]
entry_sequence = "FLVLFYCTFWVR"
test_value = 0.242

[[record]]
entry_sequence = "RVGYSIIIIGIE"
test_value = 0.433

[[record]]
entry_sequence = "LFPLFTLIFVHL"
test_value = 0.212

[[record]]
entry_sequence = "FFRFNCVFWLFL"
test_value = 0.551

[[record]]
entry_sequence = "FCASCLVCFIYL"
test_value = 0.501

[[record]]
entry_sequence = "GSRRYYFTWVYQ"
test_value = 0.697

[[record]]
entry_sequence = "VGVVLWWVVLMV"
test_value = 0.181

[[record]]
entry_sequence = "GGHGGRRRKGVG"
test_value = 0.45

[[record]]
entry_sequence = "FLMCVFFLCFSN"
test_value = 0.41

[[record]]
entry_sequence = "PLLPPLSTPPPA"
test_value = 0.732

[[record]]
entry_sequence = "SFTVFVVLLFPP"
test_value = 0.437

[[record]]
entry_sequence = "FSLLLSLSLFHC"
test_value = 0.555

[[record]]
entry_sequence = "PPPPPLAIPHPT"
test_value = 0.709

[[record]]
entry_sequence = "CLWLRCIVSILP"
test_value = 0.248

[[record]]
entry_sequence = "VFVGWVLCVVGG"
test_value = 0.161

[[record]]
entry_sequence = "LLWALGLVLVEG"
test_value = 0.193

[[record]]
entry_sequence = "VAIMSIWLVYML"
test_value = 0.465

[[record]]
entry_sequence = "RSITFFPVCLVK"
test_value = 0.389

[[record]]
entry_sequence = "CSRTRLHCFTAS"
test_value = 0.745

[[record]]
entry_sequence = "SSRPLSPQSLRL"
test_value = 0.709

[[record]]
entry_sequence = "PSFSLLRSLTLI"
test_value = 0.702

[[record]]
entry_sequence = "LCGYVGVVVCLV"
test_value = 0.307

[[record]]
entry_sequence = "GTLVFTYLVLRC"
test_value = 0.0693

[[record]]
entry_sequence = "RCQILSYCLLFV"
test_value = 0.42

[[record]]
entry_sequence = "FLVPLSPMLLSA"
test_value = 0.451

[[record]]
entry_sequence = "PVPERTSATEPP"
test_value = 0.667

[[record]]
entry_sequence = "KEKKKTKHNKIG"
test_value = 0.752

